B1: PDZK1 (parent)
chain: FQAKKIPIVSSLADPLDTPPDSKE

- Variants of: B1
- TEST DESCRIPTION: protein stability index of a GFP-peptide fusion (GPS, HEK-293T) (PSI 1-6); higher = more stable;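 also: lentivirally expressed fusions sorted by FACS into six bins by GFP to DsRed ratio, PSI derived from sequencing read proportions per bin multiplied by bin number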
- CONDITION: c terminus: a fixed tail appended
ENDPOINT NAME: protein stability index
Answer as a number with no unit attached.

Look over these answered cases.
| VARIANT ID | ENDPOINT NAME | ASSAY VALUE |
| --- | --- | --- |
| D21R | protein stability index | 2.76 |
| P19Q | protein stability index | 4.17 |
| L16W | protein stability index | 2.99 |
| P15F | protein stability index | 3.23 |
| D14R | protein stability index | 3.81 |

Query string: Fill in the blank: the reported protein stability index of "P19Y" is ____.
Result string: 3.81

Query string: Fill in the blank: the reported protein stability index of "L16S" is ____.
Result string: 4.13

Query string: Fill in the blank: the reported protein stability index of "P19F" is ____.
Result string: 2.9

Query string: Fill in the blank: the reported protein stability index of "T18V" is ____.
Result string: 3.57

Query string: Fill in the blank: the reported protein stability index of "P19W" is ____.
Result string: 3.19

Attribution: the supplement of paper PMC10567573
